Just for reference, patent US20230414780A1 is where these values come from.

Task for the reader: assign each of the following binders its reported kon.
ASSAYED TARGET: T1, human TfR ectodomain fused to a mouse IgG1 Fc fragment (human, UniProt P02786 89-760)
T1 construct: extracellular domain; ectodomain fused to the N-terminal end of the Fc, made in-house; not shown: mouse IgG1 Fc fragment
T1 sequence (P02786 89-760): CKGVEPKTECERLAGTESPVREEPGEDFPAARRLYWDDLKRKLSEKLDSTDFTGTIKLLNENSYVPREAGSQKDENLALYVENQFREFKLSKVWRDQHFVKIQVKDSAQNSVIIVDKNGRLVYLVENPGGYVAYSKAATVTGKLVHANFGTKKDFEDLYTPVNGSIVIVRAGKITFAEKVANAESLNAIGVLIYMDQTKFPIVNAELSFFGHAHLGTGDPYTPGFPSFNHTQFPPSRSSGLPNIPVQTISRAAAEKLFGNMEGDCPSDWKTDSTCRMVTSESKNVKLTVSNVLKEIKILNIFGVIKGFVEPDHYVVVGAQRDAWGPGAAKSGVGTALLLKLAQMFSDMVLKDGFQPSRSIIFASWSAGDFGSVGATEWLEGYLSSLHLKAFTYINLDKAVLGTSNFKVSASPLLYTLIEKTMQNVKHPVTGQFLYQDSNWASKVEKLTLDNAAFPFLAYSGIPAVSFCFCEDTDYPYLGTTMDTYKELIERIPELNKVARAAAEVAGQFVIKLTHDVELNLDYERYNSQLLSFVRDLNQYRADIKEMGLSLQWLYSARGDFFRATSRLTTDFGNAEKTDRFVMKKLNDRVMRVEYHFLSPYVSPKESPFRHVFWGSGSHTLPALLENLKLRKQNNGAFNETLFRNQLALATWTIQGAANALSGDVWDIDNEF
EXPERIMENTAL PROTOCOL: SPR, kinetic
Answers are plain numbers, in M⁻¹ s⁻¹.

[
  {
    "BINDER": "B8^V37 (VHH) VHH: EVQLVESGGGVVQPGGSLRLSCAASGEIFSINFMRWYRQAPGKQREWVAGFTRDGSTNYPDSAKGRFTISEDNAKNTVYLQIDSLKPEDTAVYYCYMLRTWGQGTQVTVSS",
    "kon / M⁻¹ s⁻¹": 699000
  }
]

Turning now to a further record.
Problem: Any idea what its kon is? The binder is C5^V13h20 (VHH) VHH: EVQLVESGGGVVQPGGSLRLSCAASGTDFSINFIRWYRQAPGKGLEFVAGFSATGNTNYADSVKGRFTISRDNAKNAVYLQMNSLRPEDTAVYYCYMLDKWGQGTQVTVSS
Solution: 786000
